Recorded measurements of IC50, one per entry
Target entity: T1, FLAG-tagged cynomolgus Ang2 (cynomolgus, UniProt O15123 19-496 (human entry), limits assumed)
T1 construct: N-terminally FLAG-tagged, conditioned medium of HEK293T cells; also called cAng2; FLAG-cAng2
T1 chain: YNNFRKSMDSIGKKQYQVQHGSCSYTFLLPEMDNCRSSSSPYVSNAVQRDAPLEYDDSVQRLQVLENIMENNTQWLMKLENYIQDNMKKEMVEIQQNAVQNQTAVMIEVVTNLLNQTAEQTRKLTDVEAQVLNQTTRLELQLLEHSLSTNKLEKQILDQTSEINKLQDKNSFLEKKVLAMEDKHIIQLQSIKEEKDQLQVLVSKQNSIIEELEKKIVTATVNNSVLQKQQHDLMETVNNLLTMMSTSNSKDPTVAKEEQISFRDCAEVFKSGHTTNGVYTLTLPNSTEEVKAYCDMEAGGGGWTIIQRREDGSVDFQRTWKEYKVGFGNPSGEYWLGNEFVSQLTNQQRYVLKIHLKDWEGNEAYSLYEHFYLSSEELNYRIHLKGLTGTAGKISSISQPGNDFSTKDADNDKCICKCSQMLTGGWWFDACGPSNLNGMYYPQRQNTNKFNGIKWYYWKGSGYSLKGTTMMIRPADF
Experimental details: competition ELISA: FLAG-cAng2 binding to coated cTie2-Fc
Only the number, expressed in nM, is required.

Lab book: IC50 of VHH 37F02 (VHH, not shown: small tags and cut ends, Parental llama VHH; also called 037F02) VHH: EVQLVESGGGLVQPGGSLRLSCAASGFALDYYAIGWFRQAPGKEREGVSCISSSDGITYYVDSVKGRFTISRDNAKNTVYLQMNSLKPEDTAVYYCATDSGGYIDYDCMGLGYDYWGQGTQVTVSS noted as 0.15

Lab book: IC50 of VHH 00046 (VHH, not shown: small tags and cut ends) VHH: EVQLVESGGGLVQPGGSLRLSCAASGFALDYYAIGWFRQAPGKEREGVSCISSSGGITYYVDSVKGRFTISRDNSKNTVYLQMNSLRPEDTAVYYCATDSGGYIDYDCMGLGYDYWGQGTLVTVSS noted as 0.16

Lab book: IC50 of VHH 00052 (VHH, not shown: small tags and cut ends) VHH: EVQLVESGGGLVQPGGSLRLSCAASGFTLDDYAIGWFRQAPGKEREGVSSIRDNDGSTYYADSVKGRFTISSDNDKNTVYLQMNSLRPEDTAVYYCAAVPAGRLRFGEQWYPLYEYDAWGQGTLVTVSS noted as 0.8

Then this binder:
Lab book: IC50 of VHH 00042 (VHH, not shown: small tags and cut ends) VHH: EVQLVESGGGLVQPGGSLRLSCAASGFTLDDYAIGWFRQAPGKEREGVSSIRDNDGSTYYADSVKGRFTISSDNSKNTVYLQMNSLRPEDTAVYYCAAVPAGRLRFGEQWYPLYEYDAWGQGTLVTVSS noted as 0.8
